Known Max (% Inh), maximal calcium flux of a selection of substances
Biological target: PAR2 (Homo sapiens)
Construct: SW620 human colon adenocarcinoma cells that endogenously express PAR2; endogenous in cells; host or cells: SW620 human colon adenocarcinoma cells
Sequence (P55085 26-397): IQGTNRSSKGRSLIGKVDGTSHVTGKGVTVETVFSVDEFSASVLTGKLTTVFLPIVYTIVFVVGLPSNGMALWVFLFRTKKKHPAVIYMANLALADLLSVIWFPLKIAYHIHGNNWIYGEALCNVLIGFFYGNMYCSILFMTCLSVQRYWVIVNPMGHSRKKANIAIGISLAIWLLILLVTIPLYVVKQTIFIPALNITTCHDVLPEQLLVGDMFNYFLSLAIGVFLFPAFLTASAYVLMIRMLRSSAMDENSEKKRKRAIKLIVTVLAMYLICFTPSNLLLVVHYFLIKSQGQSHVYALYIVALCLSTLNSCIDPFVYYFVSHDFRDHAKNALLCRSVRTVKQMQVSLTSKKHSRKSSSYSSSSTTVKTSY
Assay: Calcium flux assay, antagonist activity against SLIGRL in SW620 cells endogenously expressing PAR2
Format: cell-based
Conditions: 3 uM peptide, 1 min pretreatment, 8 μM SLIGRL agonist
Numbered stars: 1 amine (or outer) side, 2 acyl side, 3 side chain; on linkers, the order of the positions; unused ones are H or OH. Square brackets hold non-standard residues; d marks the D form. * marks the point of attachment. εLys = N[C@@H](CCCCN[*:1])C(=O)[*:2]; Palmitoyl = CCCCCCCCCCCCCCCC(=O)*; Cit = NC(=O)NCCC[C@H](N)C(=O)O; Ahx = NCCCCCC(=O)O

>  <Substance>
38 (GDENSEKKRKQAIK) [compound 38]

>  <Measurement unit>
%

>  <Max (% Inh), maximal calcium flux>
23

$$$$
>  <Substance>
9 (Pal-GLHHDSEPKRKSAIKL[dI]-NH2) [compound 9]

>  <Measurement unit>
%

>  <Max (% Inh), maximal calcium flux>
75

$$$$
>  <Substance>
39 (GDENSEKRWLWAIK) [compound 39]

>  <Measurement unit>
%

>  <Max (% Inh), maximal calcium flux>
23

$$$$
>  <Substance>
3 (DSEKKRKQAIKLI) [compound 3]

>  <Measurement unit>
%

>  <Max (% Inh), maximal calcium flux>
49

$$$$
>  <Substance>
7 (Pal-AIHHDSE[dP]KRKSAIKL-NH2) [compound 7]

>  <Measurement unit>
%

>  <Max (% Inh), maximal calcium flux>
50

$$$$
>  <Substance>
5 (AIDENSEKKFKSAIKL) [compound 5]

>  <Measurement unit>
%

>  <Max (% Inh), maximal calcium flux>
18

$$$$
>  <Substance>
17 (Palmitoyl-[Ahx]LHHDSEPKR[dK]SAIK[dV]-NH2) [compound 17]

>  <Measurement unit>
%

>  <Max (% Inh), maximal calcium flux>
10

$$$$
>  <Substance>
1 (GHENSEKKRKQAIK) [compound 1]

>  <Measurement unit>
%

>  <Max (% Inh), maximal calcium flux>
33

$$$$
>  <Substance>
14 (Pal-[εLys]LDENSEKKF[dK]SAIKL[dV]-NH2) [compound 14]

>  <Measurement unit>
%

>  <Max (% Inh), maximal calcium flux>
8

$$$$
>  <Substance>
11 (Pal-PLHHDSEPKR[dK]SAIK[dL]-NH2) [compound 11]

>  <Measurement unit>
%

>  <Max (% Inh), maximal calcium flux>
31

$$$$
>  <Substance>
36 (GDENSEKKRKQAIKL) [compound 36]

>  <Measurement unit>
%

>  <Max (% Inh), maximal calcium flux>
65

$$$$
>  <Substance>
2 (GDHNSEKKRKQAIK) [compound 2]

>  <Measurement unit>
%

>  <Max (% Inh), maximal calcium flux>
23

$$$$
>  <Substance>
33 (GPDENSEKKPRKQAIK) [compound 33]

>  <Measurement unit>
%

>  <Max (% Inh), maximal calcium flux>
23

$$$$
>  <Substance>
34 (Palmitoyl-GDENSEKK[Cit]KQAIK-NH2) [compound 34]

>  <Measurement unit>
%

>  <Max (% Inh), maximal calcium flux>
23

$$$$

====

Molecular target: PAR2 (Homo sapiens, UniProt P55085)
Construct: SW620 human colon adenocarcinoma cells that endogenously express PAR2; endogenous in cells; host or cells: SW620 human colon adenocarcinoma cells
Sequence (P55085 26-397): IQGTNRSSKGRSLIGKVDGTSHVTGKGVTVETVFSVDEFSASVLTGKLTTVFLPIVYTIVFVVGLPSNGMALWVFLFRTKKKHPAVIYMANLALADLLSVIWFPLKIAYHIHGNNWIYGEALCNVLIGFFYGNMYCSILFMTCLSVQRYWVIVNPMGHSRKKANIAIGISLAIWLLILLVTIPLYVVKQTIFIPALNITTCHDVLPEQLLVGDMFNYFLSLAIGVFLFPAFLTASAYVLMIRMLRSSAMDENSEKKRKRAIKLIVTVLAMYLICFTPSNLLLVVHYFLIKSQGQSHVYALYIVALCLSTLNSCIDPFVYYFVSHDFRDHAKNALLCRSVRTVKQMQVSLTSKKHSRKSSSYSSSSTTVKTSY
Experiment: Calcium flux assay, antagonist activity against SLIGRL in SW620 cells endogenously expressing PAR2
Assay type: cell-based
Details: 3 uM peptide, 1 min pretreatment, 8 μM SLIGRL agonist
Numbered stars: 1 amine (or outer) side, 2 acyl side, 3 side chain; on linkers, the order of the positions; unused ones are H or OH. Square brackets hold non-standard residues; d marks the D form. εLys = N[C@@H](CCCCN[*:1])C(=O)[*:2]; βAla = NCCC(=O)O
Label 1 when Max (% Inh), maximal calcium flux is at or above 20%; otherwise label 0.

>  <Substance>
30 (GLDENSEPKRKSAIKLI) [compound 30]

>  <Assigned class>
0

$$$$
>  <Substance>
25 (AMDENSEKKYKSAIKL) [compound 25]

>  <Assigned class>
1

$$$$
>  <Substance>
37 (GDENSEKKRKQAIKLI) [compound 37]

>  <Assigned class>
0

$$$$
>  <Substance>
41 (MDENSEKKRKRAIK) [compound 41]

>  <Assigned class>
1

$$$$
>  <Substance>
8 (Pal-AIHHDSE[dP]RKSAAKL-NH2) [compound 8]

>  <Assigned class>
0

$$$$
>  <Substance>
40 (GDENSEKKRKWAIK) [compound 40]

>  <Assigned class>
1

$$$$
>  <Substance>
4 (RSSAIDENSEKKRKSAIK) [compound 4]

>  <Assigned class>
1

$$$$
>  <Substance>
31 (GDENHEKKRKQAIK) [compound 31]

>  <Assigned class>
1

$$$$
>  <Substance>
35 (Pal-GDENSEKKRKSAIK[dA]-NH2) [compound 35]

>  <Assigned class>
1

$$$$
>  <Substance>
16 (Pal-GLHHDSEPKR[dK][βAla]IK[dV]-NH2) [compound 16]

>  <Assigned class>
0

$$$$
>  <Substance>
20 (Pal-[εLys]AIDENSEKKFKSAIKL-NH2) [compound 20]

>  <Assigned class>
0

$$$$

====

Molecular target: PAR2 (Homo sapiens, UniProt P55085)
Construct: SW620 human colon adenocarcinoma cells that endogenously express PAR2; endogenous in cells; host or cells: SW620 human colon adenocarcinoma cells
Sequence (P55085 26-397): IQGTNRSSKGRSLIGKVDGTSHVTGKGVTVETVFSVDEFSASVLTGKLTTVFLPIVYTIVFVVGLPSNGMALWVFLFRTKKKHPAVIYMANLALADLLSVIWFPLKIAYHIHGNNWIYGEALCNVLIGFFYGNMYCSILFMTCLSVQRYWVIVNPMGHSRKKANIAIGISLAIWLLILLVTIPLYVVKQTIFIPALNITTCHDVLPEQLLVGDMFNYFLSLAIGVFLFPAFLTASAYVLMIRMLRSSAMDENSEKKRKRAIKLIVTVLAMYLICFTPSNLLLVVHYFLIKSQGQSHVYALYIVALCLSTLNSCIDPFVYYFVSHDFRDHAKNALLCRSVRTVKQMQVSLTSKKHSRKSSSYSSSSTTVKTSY
Experiment: Calcium flux assay, antagonist activity against SLIGRL in SW620 cells endogenously expressing PAR2
Assay type: cell-based
Conditions: 10 uM peptide, 1 min pretreatment, 8 μM SLIGRL agonist
Numbered stars: 1 amine (or outer) side, 2 acyl side, 3 side chain; on linkers, the order of the positions; unused ones are H or OH. Square brackets hold non-standard residues; d marks the D form. * marks the point of attachment. εLys = N[C@@H](CCCCN[*:1])C(=O)[*:2]; Palmitoyl = CCCCCCCCCCCCCCCC(=O)*; Cit = NC(=O)NCCC[C@H](N)C(=O)O; Ahx = NCCCCCC(=O)O; βAla = NCCC(=O)O
Known Max (% Inh), maximal calcium flux of a selection of substances

>  <Substance>
2 (GDHNSEKKRKQAIK) [compound 2]

>  <Measurement unit>
%

>  <Max (% Inh), maximal calcium flux>
78

$$$$
>  <Substance>
11 (Pal-PLHHDSEPKR[dK]SAIK[dL]-NH2) [compound 11]

>  <Measurement unit>
%

>  <Max (% Inh), maximal calcium flux>
95

$$$$
>  <Substance>
38 (GDENSEKKRKQAIK) [compound 38]

>  <Measurement unit>
%

>  <Max (% Inh), maximal calcium flux>
65

$$$$
>  <Substance>
3 (DSEKKRKQAIKLI) [compound 3]

>  <Measurement unit>
%

>  <Max (% Inh), maximal calcium flux>
89

$$$$
>  <Substance>
4 (RSSAIDENSEKKRKSAIK) [compound 4]

>  <Measurement unit>
%

>  <Max (% Inh), maximal calcium flux>
82

$$$$
>  <Substance>
32 (PGDENSEKPKRKQAIK) [compound 32]

>  <Measurement unit>
%

>  <Max (% Inh), maximal calcium flux>
93

$$$$
>  <Substance>
17 (Palmitoyl-[Ahx]LHHDSEPKR[dK]SAIK[dV]-NH2) [compound 17]

>  <Measurement unit>
%

>  <Max (% Inh), maximal calcium flux>
66

$$$$
>  <Substance>
8 (Pal-AIHHDSE[dP]RKSAAKL-NH2) [compound 8]

>  <Measurement unit>
%

>  <Max (% Inh), maximal calcium flux>
18

$$$$
>  <Substance>
16 (Pal-GLHHDSEPKR[dK][βAla]IK[dV]-NH2) [compound 16]

>  <Measurement unit>
%

>  <Max (% Inh), maximal calcium flux>
60

$$$$
>  <Substance>
40 (GDENSEKKRKWAIK) [compound 40]

>  <Measurement unit>
%

>  <Max (% Inh), maximal calcium flux>
93

$$$$
>  <Substance>
36 (GDENSEKKRKQAIKL) [compound 36]

>  <Measurement unit>
%

>  <Max (% Inh), maximal calcium flux>
65

$$$$
>  <Substance>
9 (Pal-GLHHDSEPKRKSAIKL[dI]-NH2) [compound 9]

>  <Measurement unit>
%

>  <Max (% Inh), maximal calcium flux>
95

$$$$
>  <Substance>
5 (AIDENSEKKFKSAIKL) [compound 5]

>  <Measurement unit>
%

>  <Max (% Inh), maximal calcium flux>
32

$$$$
>  <Substance>
37 (GDENSEKKRKQAIKLI) [compound 37]

>  <Measurement unit>
%

>  <Max (% Inh), maximal calcium flux>
65

$$$$
>  <Substance>
30 (GLDENSEPKRKSAIKLI) [compound 30]

>  <Measurement unit>
%

>  <Max (% Inh), maximal calcium flux>
0

$$$$
>  <Substance>
31 (GDENHEKKRKQAIK) [compound 31]

>  <Measurement unit>
%

>  <Max (% Inh), maximal calcium flux>
65

$$$$
>  <Substance>
35 (Pal-GDENSEKKRKSAIK[dA]-NH2) [compound 35]

>  <Measurement unit>
%

>  <Max (% Inh), maximal calcium flux>
65

$$$$
>  <Substance>
39 (GDENSEKRWLWAIK) [compound 39]

>  <Measurement unit>
%

>  <Max (% Inh), maximal calcium flux>
93

$$$$
>  <Substance>
41 (MDENSEKKRKRAIK) [compound 41]

>  <Measurement unit>
%

>  <Max (% Inh), maximal calcium flux>
65

$$$$
>  <Substance>
7 (Pal-AIHHDSE[dP]KRKSAIKL-NH2) [compound 7]

>  <Measurement unit>
%

>  <Max (% Inh), maximal calcium flux>
84

$$$$
>  <Substance>
25 (AMDENSEKKYKSAIKL) [compound 25]

>  <Measurement unit>
%

>  <Max (% Inh), maximal calcium flux>
29

$$$$
>  <Substance>
20 (Pal-[εLys]AIDENSEKKFKSAIKL-NH2) [compound 20]

>  <Measurement unit>
%

>  <Max (% Inh), maximal calcium flux>
86

$$$$
>  <Substance>
14 (Pal-[εLys]LDENSEKKF[dK]SAIKL[dV]-NH2) [compound 14]

>  <Measurement unit>
%

>  <Max (% Inh), maximal calcium flux>
26

$$$$
>  <Substance>
34 (Palmitoyl-GDENSEKK[Cit]KQAIK-NH2) [compound 34]

>  <Measurement unit>
%

>  <Max (% Inh), maximal calcium flux>
93

$$$$
>  <Substance>
1 (GHENSEKKRKQAIK) [compound 1]

>  <Measurement unit>
%

>  <Max (% Inh), maximal calcium flux>
85

$$$$
>  <Substance>
33 (GPDENSEKKPRKQAIK) [compound 33]

>  <Measurement unit>
%

>  <Max (% Inh), maximal calcium flux>
93

$$$$
